Molecular target: UniProtKB P08922
Sequence (P08922 1883-2347 limits assumed): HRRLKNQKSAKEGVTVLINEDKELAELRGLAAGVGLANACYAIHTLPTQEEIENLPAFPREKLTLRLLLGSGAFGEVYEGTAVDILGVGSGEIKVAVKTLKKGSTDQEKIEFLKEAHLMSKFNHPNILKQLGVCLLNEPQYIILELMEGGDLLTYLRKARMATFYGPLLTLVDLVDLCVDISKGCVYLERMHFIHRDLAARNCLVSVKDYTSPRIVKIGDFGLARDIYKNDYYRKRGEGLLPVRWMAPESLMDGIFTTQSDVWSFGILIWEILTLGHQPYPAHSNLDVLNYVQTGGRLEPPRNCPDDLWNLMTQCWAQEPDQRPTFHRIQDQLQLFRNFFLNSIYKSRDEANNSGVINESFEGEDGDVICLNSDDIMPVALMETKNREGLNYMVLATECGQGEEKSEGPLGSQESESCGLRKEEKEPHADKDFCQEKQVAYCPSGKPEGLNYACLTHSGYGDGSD
reported-endpoint: IC50 (nM)

1. CN1CCN(c2ccc(C(=O)Nc3n[nH]c4cc(-c5ccc(O)cc5)c(Cc5cc(F)cc(F)c5)cc34)c(NC3CCOCC3)c2)CC1; 160

###

Biological target: EPHB2 (Homo sapiens, UniProt P29323)
Sequence (P29323 19-1055): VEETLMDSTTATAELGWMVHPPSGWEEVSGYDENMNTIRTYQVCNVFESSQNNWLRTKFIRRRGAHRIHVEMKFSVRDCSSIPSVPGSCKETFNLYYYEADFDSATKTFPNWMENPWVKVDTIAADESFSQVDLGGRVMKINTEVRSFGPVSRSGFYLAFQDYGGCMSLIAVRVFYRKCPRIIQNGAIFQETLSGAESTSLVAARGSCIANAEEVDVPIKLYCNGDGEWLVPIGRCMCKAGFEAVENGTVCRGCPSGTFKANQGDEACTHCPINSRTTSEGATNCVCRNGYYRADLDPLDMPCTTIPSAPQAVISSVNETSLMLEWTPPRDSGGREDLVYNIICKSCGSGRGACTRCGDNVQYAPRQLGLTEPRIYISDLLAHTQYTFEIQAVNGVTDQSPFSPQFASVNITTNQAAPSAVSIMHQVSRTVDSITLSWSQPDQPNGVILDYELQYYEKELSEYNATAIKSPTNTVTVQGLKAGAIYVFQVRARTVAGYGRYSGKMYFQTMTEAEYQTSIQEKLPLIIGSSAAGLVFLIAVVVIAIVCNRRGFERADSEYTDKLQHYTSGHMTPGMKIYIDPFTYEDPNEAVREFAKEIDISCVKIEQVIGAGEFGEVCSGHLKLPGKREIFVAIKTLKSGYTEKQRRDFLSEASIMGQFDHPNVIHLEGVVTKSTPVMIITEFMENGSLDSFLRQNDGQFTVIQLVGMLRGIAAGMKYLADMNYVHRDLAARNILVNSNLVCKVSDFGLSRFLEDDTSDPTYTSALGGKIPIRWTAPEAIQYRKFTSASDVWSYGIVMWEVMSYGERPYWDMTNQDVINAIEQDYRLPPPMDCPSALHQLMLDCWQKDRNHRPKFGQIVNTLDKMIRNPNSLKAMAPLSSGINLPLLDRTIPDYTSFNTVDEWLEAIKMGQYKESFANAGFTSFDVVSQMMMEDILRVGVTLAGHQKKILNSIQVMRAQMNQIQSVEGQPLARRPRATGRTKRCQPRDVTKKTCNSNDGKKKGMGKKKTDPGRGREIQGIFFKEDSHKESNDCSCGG
pIC50: −log10 of the molar value.
reported-endpoint: pIC50

1) CN1CCN(c2ccc(C(=O)Nc3n[nH]c4cc(-c5ccc(O)cc5)c(Cc5cc(F)cc(F)c5)cc34)c(NC3CCOCC3)c2)CC1 [Example 3]; 7.05

###

Target: RET M918T (Homo sapiens, UniProt P07949, M918T)
Construct: either as full-length or enzymatically active fragments
Test: Radiometric protein kinase assay (33PanQuinase Activity Assay), RET M918T
Settings: ATP 0.3 μM
pIC50: −log10 of the molar value.
reported-endpoint: pIC50

1. CN1CCN(c2ccc(C(=O)Nc3n[nH]c4cc(-c5ccc(O)cc5)c(Cc5cc(F)cc(F)c5)cc34)c(NC3CCOCC3)c2)CC1; 6.92

###

Target: BaF3 cell line transfected with the oncogenic fusion protein NPM-ALK and expressing the mutation L1196M (Homo sapiens, UniProt Q9UM73, L1196M, cells depend on it)
Construct: fused on or other part: P06748 (Nucleophosmin)
Sequence (Q9UM73 whole entry L1196M, the tested form may be a part): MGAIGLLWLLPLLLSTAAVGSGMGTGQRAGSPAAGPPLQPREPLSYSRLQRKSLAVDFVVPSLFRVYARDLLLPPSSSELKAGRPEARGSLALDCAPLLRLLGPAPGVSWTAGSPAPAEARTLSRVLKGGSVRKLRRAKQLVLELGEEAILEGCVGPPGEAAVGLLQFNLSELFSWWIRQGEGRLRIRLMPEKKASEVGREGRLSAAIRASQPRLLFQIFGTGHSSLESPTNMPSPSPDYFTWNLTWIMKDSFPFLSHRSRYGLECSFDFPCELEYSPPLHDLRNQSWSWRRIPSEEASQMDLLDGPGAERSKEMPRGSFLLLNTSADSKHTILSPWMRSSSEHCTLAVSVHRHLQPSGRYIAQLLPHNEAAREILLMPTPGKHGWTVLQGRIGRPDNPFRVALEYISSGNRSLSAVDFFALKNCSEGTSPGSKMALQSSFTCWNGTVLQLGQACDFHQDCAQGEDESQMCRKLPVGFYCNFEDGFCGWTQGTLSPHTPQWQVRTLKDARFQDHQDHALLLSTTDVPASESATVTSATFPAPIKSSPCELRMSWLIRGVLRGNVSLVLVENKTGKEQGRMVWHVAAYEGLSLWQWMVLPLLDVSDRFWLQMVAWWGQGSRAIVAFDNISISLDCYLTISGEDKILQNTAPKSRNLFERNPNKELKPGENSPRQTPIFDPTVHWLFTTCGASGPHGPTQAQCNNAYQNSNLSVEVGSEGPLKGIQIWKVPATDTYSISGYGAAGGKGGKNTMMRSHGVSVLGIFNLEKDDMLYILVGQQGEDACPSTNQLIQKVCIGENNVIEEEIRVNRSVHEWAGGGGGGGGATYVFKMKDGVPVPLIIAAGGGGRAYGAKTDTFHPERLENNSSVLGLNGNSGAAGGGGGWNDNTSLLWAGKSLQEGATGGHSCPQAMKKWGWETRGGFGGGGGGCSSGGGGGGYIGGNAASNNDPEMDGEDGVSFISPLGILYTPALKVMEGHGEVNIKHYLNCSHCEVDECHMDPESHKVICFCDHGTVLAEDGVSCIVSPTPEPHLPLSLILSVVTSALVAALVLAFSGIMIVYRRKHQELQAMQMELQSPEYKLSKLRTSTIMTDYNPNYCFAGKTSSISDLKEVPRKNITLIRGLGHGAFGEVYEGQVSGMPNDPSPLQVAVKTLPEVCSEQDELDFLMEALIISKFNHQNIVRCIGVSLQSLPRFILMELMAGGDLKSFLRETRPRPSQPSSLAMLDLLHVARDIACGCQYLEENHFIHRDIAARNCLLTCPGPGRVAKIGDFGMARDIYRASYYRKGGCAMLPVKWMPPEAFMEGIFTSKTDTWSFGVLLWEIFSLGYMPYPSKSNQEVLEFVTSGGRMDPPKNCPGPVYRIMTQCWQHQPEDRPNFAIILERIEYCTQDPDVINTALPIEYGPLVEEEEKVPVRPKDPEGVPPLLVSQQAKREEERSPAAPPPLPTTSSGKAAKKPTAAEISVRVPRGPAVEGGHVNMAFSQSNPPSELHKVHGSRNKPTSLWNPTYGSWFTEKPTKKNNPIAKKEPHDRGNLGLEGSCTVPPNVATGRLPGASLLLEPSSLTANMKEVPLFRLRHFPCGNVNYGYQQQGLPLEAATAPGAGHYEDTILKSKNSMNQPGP
Experiment: Tritiated thymidine uptake cell proliferation assay, BaF3 NPM-ALK L1196M
Type: cell-based, murine
Conditions: percentage of inhibition of cell proliferation at 200 nM
reported-endpoint: % Inhibition BaF3 NPM-ALK L1196M cells (%)

1. CN1CCN(c2ccc(C(=O)Nc3n[nH]c4cc(-c5ccc6[nH]ncc6c5)c(Cc5cc(F)cc(F)c5)cc34)c(NC3CCOCC3)c2)CC1; 99
2. CN1CCN(c2ccc(C(=O)Nc3n[nH]c4cc(-c5ccc6c(c5)C(=O)NC6)c(Cc5cc(F)cc(F)c5)cc34)c(NC3CCOCC3)c2)CC1; 60
3. CN1CCN(c2ccc(C(=O)Nc3n[nH]c4cc(-c5cn[nH]c5)c(Cc5cc(F)cc(F)c5)cc34)c(NC3CCOCC3)c2)CC1; 97

###

Molecular target: FYN (Homo sapiens)
Sequence (P06241 whole entry): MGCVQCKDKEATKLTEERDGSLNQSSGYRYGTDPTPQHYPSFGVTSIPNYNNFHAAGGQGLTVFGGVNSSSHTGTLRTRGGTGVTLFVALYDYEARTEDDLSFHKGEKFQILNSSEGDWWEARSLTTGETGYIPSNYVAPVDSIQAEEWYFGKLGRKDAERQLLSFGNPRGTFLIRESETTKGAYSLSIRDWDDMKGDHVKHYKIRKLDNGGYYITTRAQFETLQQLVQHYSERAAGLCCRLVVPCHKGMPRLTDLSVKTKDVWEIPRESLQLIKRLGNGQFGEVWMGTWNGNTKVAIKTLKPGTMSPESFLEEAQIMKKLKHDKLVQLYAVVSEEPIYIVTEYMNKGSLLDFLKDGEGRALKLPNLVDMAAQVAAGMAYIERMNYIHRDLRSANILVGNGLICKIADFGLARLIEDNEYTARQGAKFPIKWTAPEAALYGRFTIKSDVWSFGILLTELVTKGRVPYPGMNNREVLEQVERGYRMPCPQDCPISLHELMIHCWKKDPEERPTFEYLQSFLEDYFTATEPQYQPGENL
reported-endpoint: IC50 (µM)

1) CN1CCN(c2ccc(C(=O)Nc3n[nH]c4cc(-c5ccc(O)cc5)c(Cc5cc(F)cc(F)c5)cc34)c(NC3CCOCC3)c2)CC1; 0.034

###

Molecular target: RET V804M (Homo sapiens, UniProt P07949, V804M)
Construct: either as full-length or enzymatically active fragments
Sequence (P07949 29-1114 V804M): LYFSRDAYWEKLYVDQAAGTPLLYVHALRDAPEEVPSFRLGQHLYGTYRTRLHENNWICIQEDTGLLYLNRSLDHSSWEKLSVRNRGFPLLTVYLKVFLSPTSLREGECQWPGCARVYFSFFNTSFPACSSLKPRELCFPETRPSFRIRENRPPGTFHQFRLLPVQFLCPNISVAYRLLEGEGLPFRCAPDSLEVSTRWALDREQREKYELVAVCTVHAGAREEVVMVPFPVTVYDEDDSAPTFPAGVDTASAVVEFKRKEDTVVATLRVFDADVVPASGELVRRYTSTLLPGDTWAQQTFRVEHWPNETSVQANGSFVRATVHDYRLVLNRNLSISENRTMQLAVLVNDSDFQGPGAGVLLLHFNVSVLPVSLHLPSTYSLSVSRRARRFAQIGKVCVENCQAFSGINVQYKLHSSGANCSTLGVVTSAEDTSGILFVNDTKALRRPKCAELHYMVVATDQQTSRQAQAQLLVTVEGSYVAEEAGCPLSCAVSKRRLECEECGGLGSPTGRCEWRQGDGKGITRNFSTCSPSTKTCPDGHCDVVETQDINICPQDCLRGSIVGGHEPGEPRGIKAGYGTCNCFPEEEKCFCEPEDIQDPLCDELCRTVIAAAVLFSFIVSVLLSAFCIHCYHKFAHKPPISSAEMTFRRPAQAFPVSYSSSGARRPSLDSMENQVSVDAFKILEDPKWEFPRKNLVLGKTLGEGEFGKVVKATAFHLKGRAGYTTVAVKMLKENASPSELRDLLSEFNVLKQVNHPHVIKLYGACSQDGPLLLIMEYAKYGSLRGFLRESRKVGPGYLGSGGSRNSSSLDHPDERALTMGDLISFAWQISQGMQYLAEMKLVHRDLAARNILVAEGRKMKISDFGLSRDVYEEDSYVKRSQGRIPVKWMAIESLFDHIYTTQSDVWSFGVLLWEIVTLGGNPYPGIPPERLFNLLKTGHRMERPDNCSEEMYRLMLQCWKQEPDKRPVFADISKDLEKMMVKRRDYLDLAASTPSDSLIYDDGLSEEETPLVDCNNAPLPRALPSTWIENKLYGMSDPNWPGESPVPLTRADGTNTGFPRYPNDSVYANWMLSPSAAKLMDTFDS
Assay: Radiometric protein kinase assay (33PanQuinase Activity Assay), RET V804M
Settings: ATP 0.3 μM
Experimental: A proprietary radiometric protein kinase assay (33PanQuinase® Activity Assay) developed by ProQuinase GmbH (Freiburg, Germany) was used for measuring the kinase activity of selected protein kinases. […] A stock solution of compound of formula (I) was diluted to 5×10-04M/100% DMSO. […] Incorporation of 33Pi (counting of “cpm”) was determined with a microplate scintillation counter (Microbeta, Wallac). […]
pIC50: −log10 of the molar value.
reported-endpoint: pIC50

1. CN1CCN(c2ccc(C(=O)Nc3n[nH]c4cc(-c5ccc(O)cc5)c(Cc5cc(F)cc(F)c5)cc34)c(NC3CCOCC3)c2)CC1 [Example 3]; 7.07

###

Biological target: TRK-B (Homo sapiens)
reported-endpoint: IC50

1) CN1CCN(c2ccc(C(=O)Nc3n[nH]c4cc(-c5ccc(O)cc5)c(Cc5cc(F)cc(F)c5)cc34)c(NC3CCOCC3)c2)CC1 [Example 3]; 88 nM

###

Target: BaF3 cell line transfected with the oncogenic fusion protein NPM-ALK and expressing the mutation L1196M (Homo sapiens, UniProt Q9UM73, L1196M, cells depend on it)
Construct: fused on or other part: P06748 (Nucleophosmin)
Test: Tritiated thymidine uptake cell proliferation assay, BaF3 NPM-ALK L1196M
Assay type: cell-based, murine
Conditions: averaged IC50 values of cell proliferation inhibition, class letters; read-out: IC50 BaF3 NPM-ALK L1196M cells
reported-endpoint: GI50

1. CN1CCN(c2ccc(C(=O)Nc3n[nH]c4cc(-c5cn[nH]c5)c(Cc5cc(F)cc(F)c5)cc34)c(NC3CCOCC3)c2)CC1; 100 to 500 nM
2. Cc1cc(-c2cc3[nH]nc(NC(=O)c4ccc(N5CCN(C)CC5)cc4NC4CCOCC4)c3cc2Cc2cc(F)cc(F)c2)ccc1O; 1 to 50 nM
3. CN1CCN(c2ccc(C(=O)Nc3n[nH]c4cc(-c5cccc(CO)c5)c(Cc5cc(F)cc(F)c5)cc34)c(NC3CCOCC3)c2)CC1; 100 to 500 nM
4. CN1CCN(c2ccc(C(=O)Nc3n[nH]c4cc(-c5cncc(N)c5)c(Cc5cc(F)cc(F)c5)cc34)c(NC3CCOCC3)c2)CC1; 50 to 100 nM
5. CN1CCN(c2ccc(C(=O)Nc3n[nH]c4cc(-c5cnn(C(C)(C)CO)c5)c(Cc5cc(F)cc(F)c5)cc34)c(NC3CCOCC3)c2)CC1; 50 to 100 nM
6. CN1CCN(c2ccc(C(=O)Nc3n[nH]c4cc(-c5ccc6[nH]ncc6c5)c(Cc5cc(F)cc(F)c5)cc34)cc2)CC1; 50 to 100 nM
7. CN1CCN(c2ccc(C(=O)Nc3n[nH]c4cc(-c5ccc(O)cc5F)c(Cc5cc(F)cc(F)c5)cc34)c(NC3CCOCC3)c2)CC1; 1 to 50 nM
8. Cc1cc(O)ccc1-c1cc2[nH]nc(NC(=O)c3ccc(N4CCN(C)CC4)cc3NC3CCOCC3)c2cc1Cc1cc(F)cc(F)c1; 1 to 50 nM
9. CN1CCN(c2ccc(C(=O)Nc3n[nH]c4cc(-c5ccc(O)cc5)c(Cc5cc(F)cc(F)c5)cc34)c(NC3CCOCC3)c2)CC1; 1 to 50 nM
10. CN1CCN(c2ccc(C(=O)Nc3n[nH]c4cc(-c5ccc6[nH]ncc6c5)c(Cc5cc(F)cc(F)c5)cc34)c(NC3CCOCC3)c2)CC1; 1 to 50 nM
11. CN1CCN(c2ccc(C(=O)Nc3n[nH]c4cc(-c5cnc6[nH]ccc6c5)c(Cc5cc(F)cc(F)c5)cc34)c(NC3CCOCC3)c2)CC1; 50 to 100 nM
12. CN1CCN(c2ccc(C(=O)Nc3n[nH]c4cc(-c5cccc(O)c5)c(Cc5cc(F)cc(F)c5)cc34)c(NC3CCOCC3)c2)CC1; 1 to 50 nM
13. COCCNc1cc(N2CCN(C)CC2)ccc1C(=O)Nc1n[nH]c2cc(-c3ccc(O)c(F)c3)c(Cc3cccc(F)c3)cc12; 50 to 100 nM
14. Cc1cc(O)ccc1-c1cc2[nH]nc(NC(=O)c3ccc(N4CCN(C)CC4)cc3)c2cc1Cc1cc(F)cc(F)c1; 1 to 50 nM
15. CN1CCN(c2ccc(C(=O)Nc3n[nH]c4cc(-c5ccc(O)cc5C(F)(F)F)c(Cc5cc(F)cc(F)c5)cc34)c(NC3CCOCC3)c2)CC1; 1 to 50 nM
16. Cc1ccc(O)cc1-c1cc2[nH]nc(NC(=O)c3ccc(N4CCN(C)CC4)cc3NC3CCOCC3)c2cc1Cc1cc(F)cc(F)c1; 1 to 50 nM
17. CN1CCN(c2ccc(C(=O)Nc3n[nH]c4cc(-c5ccc(O)c(F)c5)c(Cc5cc(F)cc(F)c5)cc34)c(NC3CCOCC3)c2)CC1; 1 to 50 nM
18. CN1CCN(c2ccc(C(=O)Nc3n[nH]c4cc(-c5cc(O)cc(F)c5)c(Cc5cc(F)cc(F)c5)cc34)c(NC3CCOCC3)c2)CC1; 50 to 100 nM
19. CN1CCN(c2ccc(C(=O)Nc3n[nH]c4cc(-c5ccc(O)cc5)c(Cc5cc(F)cc(F)c5)cc34)cc2)CC1; 1 to 50 nM
20. CN1CCN(c2ccc(C(=O)Nc3n[nH]c4cc(-c5ccc(N)nc5)c(Cc5cc(F)cc(F)c5)cc34)c(NC3CCOCC3)c2)CC1; 50 to 100 nM
21. CN1CCN(c2ccc(C(=O)Nc3n[nH]c4cc(-c5cc(O)ccc5F)c(Cc5cc(F)cc(F)c5)cc34)c(NC3CCOCC3)c2)CC1; 1 to 50 nM
22. CN1CCN(c2ccc(C(=O)Nc3n[nH]c4cc(-c5ccc(O)cc5)c(Cc5cccc(F)c5)cc34)c(NC3CCOCC3)c2)CC1; 1 to 50 nM

###

Biological target: BaF3 cell line transfected with the oncogenic fusion protein NPM-ALK and expressing the mutation L1196M (Homo sapiens, UniProt Q9UM73, L1196M, cells depend on it)
Construct: fused on or other part: P06748 (Nucleophosmin)
Experiment: Tritiated thymidine uptake cell proliferation assay, BaF3 NPM-ALK L1196M
Type: cell-based, murine
Settings: percentage of inhibition of cell proliferation at 200 nM
The compounds listed here are annotated with their % Inhibition BaF3 NPM-ALK L1196M cells.
reported-endpoint: % Inhibition BaF3 NPM-ALK L1196M cells (%)

1) CN1CCN(c2ccc(C(=O)Nc3n[nH]c4cc(-c5ccc(O)c(F)c5)c(Cc5cc(F)cc(F)c5)cc34)c(NC3CCOCC3)c2)CC1 [Example 25]; 100
2) CNC(=O)c1ccc(-c2cc3[nH]nc(NC(=O)c4ccc(N5CCN(C)CC5)cc4NC4CCOCC4)c3cc2Cc2cc(F)cc(F)c2)cc1 [Example 20]; 57
3) CN1CCN(c2ccc(C(=O)Nc3n[nH]c4cc(-c5cnc(N)nc5)c(Cc5cc(F)cc(F)c5)cc34)c(NC3CCOCC3)c2)CC1 [Example 10]; 61
4) CN1CCN(c2ccc(C(=O)Nc3n[nH]c4cc(-c5cc(O)cc(F)c5)c(Cc5cc(F)cc(F)c5)cc34)c(NC3CCOCC3)c2)CC1 [Example 19]; 100
5) Cc1ccc(O)cc1-c1cc2[nH]nc(NC(=O)c3ccc(N4CCN(C)CC4)cc3NC3CCOCC3)c2cc1Cc1cc(F)cc(F)c1 [Example 7]; 100
6) CN1CCN(c2ccc(C(=O)Nc3n[nH]c4cc(-c5cc(O)ccc5F)c(Cc5cc(F)cc(F)c5)cc34)c(NC3CCOCC3)c2)CC1 [Example 8]; 99
7) CN1CCN(c2ccc(C(=O)Nc3n[nH]c4cc(-c5ccc(O)cc5C(F)(F)F)c(Cc5cc(F)cc(F)c5)cc34)c(NC3CCOCC3)c2)CC1 [Example 9]; 99
8) CN1CCN(c2ccc(C(=O)Nc3n[nH]c4cc(-c5ccc6[nH]ncc6c5)c(Cc5cc(F)cc(F)c5)cc34)cc2)CC1 [Example 35]; 96
9) CN1CCN(c2ccc(C(=O)Nc3n[nH]c4cc(-c5cnc6[nH]ccc6c5)c(Cc5cc(F)cc(F)c5)cc34)c(NC3CCOCC3)c2)CC1 [Example 29]; 98
10) Cc1cc(O)ccc1-c1cc2[nH]nc(NC(=O)c3ccc(N4CCN(C)CC4)cc3NC3CCOCC3)c2cc1Cc1cc(F)cc(F)c1 [Example 5]; 100
11) CN1CCN(c2ccc(C(=O)Nc3n[nH]c4cc(-c5cccc(CO)c5)c(Cc5cc(F)cc(F)c5)cc34)c(NC3CCOCC3)c2)CC1 [Example 13]; 97
12) CN1CCN(c2ccc(C(=O)Nc3n[nH]c4cc(-c5cnn(C(C)(C)CO)c5)c(Cc5cc(F)cc(F)c5)cc34)c(NC3CCOCC3)c2)CC1 [Example 15]; 100
13) COc1cccc(-c2cc3[nH]nc(NC(=O)c4ccc(N5CCN(C)CC5)cc4NC4CCOCC4)c3cc2Cc2cc(F)cc(F)c2)c1 [Example 24]; 52
